viability at 48 h, 50 µM values, listed per item
assay: in vitro; details: human
ATTRIBUTE MEASURED: viability at 48 h, 50 µM

COc1ccc(C2CC(=O)c3c(O)cc(OCC(=O)NCc4ccc(F)cc4)cc3O2)cc1O (stereo not shown) : 83.8%
COc1ccc(C2CC(=O)c3c(O)cc(OCC(=O)NCCc4ccc(Br)cc4)cc3O2)cc1O (stereo not shown) : 78.8%
COc1cccc(CNC(=O)COc2cc(O)c3c(c2)OC(c2ccc(OC)c(O)c2)CC3=O)c1 (stereo not shown) : 84.2%
COc1ccc(C2CC(=O)c3c(O)cc(OCC(=O)NCCc4ccccc4F)cc3O2)cc1O (stereo not shown) : 85.6%
COc1ccc(C2CC(=O)c3c(O)cc(OCC(=O)NCCc4ccccc4)cc3O2)cc1O (stereo not shown) : 81%
COc1ccc(C2CC(=O)c3c(O)cc(OCC(=O)NCCc4ccc(F)cc4)cc3O2)cc1O (stereo not shown) : 81.7%
COc1ccc(C2CC(=O)c3c(O)cc(OCC(=O)NCc4ccccc4OC)cc3O2)cc1O (stereo not shown) : 75%
COc1ccc([C@@H]2CC(=O)c3c(O)cc(OCC(=O)NCc4ccc(C(F)(F)F)cc4)cc3O2)cc1O : 83.3%
COc1ccc(C2CC(=O)c3c(O)cc(OCC(=O)NCCc4cccc(Cl)c4)cc3O2)cc1O (stereo not shown) : 83.8%
COc1ccc(C2CC(=O)c3c(O)cc(OCC(=O)NCCc4ccc(Cl)cc4)cc3O2)cc1O (stereo not shown) : 81.5%
